In this section we review reported viability at 50 µM values for a set of compounds.
- Tested on: human pancreatic carcinoma (PANC-1)
- experiment: MTS metabolic activity assay, PANC-1 cells
- Type: cell-based
- condition.description: Homo sapiens; PANC-1, 50 µM, 72 h; read-out: Cell metabolic activity (MTS), % of untreated control
Supply the numeric figure in %, leaving out any unit text.

1. O=C1N=C(NC2CCCC2)SC1c1ccccc1 (stereo not drawn); 117
2. O=C1N=C(NC2CCCC2)SC12CCCCC2; 105
3. CC1SC(NC2CCCC2)=NC1=O (stereo not drawn); 106
4. CC1(C)SC(NC2CCCC2)=NC1=O; 110
5. CCCC1SC(NC2CCCC2)=NC1=O (stereo not drawn); 112
6. CCC1SC(NC2CCCC2)=NC1=O (stereo not drawn); 107

The compound O=C1N=C(NC2CCCC2)SC1c1ccc(Br)cc1 (stereo not drawn) , tested on human pancreatic carcinoma (PANC-1), showed viability at 50 µM of 145

The compound CC(C)C1SC(NC2CCCC2)=NC1=O (stereo not drawn) , tested on human pancreatic carcinoma (PANC-1), showed viability at 50 µM of 105

The compound "O=C1N=C(NC2CCCC2)SC12CCC2" , tested on human pancreatic carcinoma (PANC-1), showed viability at 50 µM of 97.3

---

- System: skin melanoma (SK-MEL-30)
- experiment: MTS metabolic activity assay, SK-MEL-30 cells
- Assay type: cell-based
- condition.description: Homo sapiens; SK-MEL-30, 200 µM, 72 h; read-out: Cell metabolic activity (MTS), % of untreated control
readout.label: viability at 200 µM (%)
Supply the numeric figure in %, leaving out any unit text.

Past entries and their recorded results:
1. CC1SC(NC2CCCC2)=NC1=O (stereo not drawn); 103
2. CC(C)C1SC(NC2CCCC2)=NC1=O (stereo not drawn); 92.3
3. O=C1N=C(NC2CCCC2)SC12CCC2; 101

Now take the following molecule into account.
The molecule listed as O=C1N=C(NC2CCCC2)SC1c1ccccc1 (stereo not drawn) shows viability at 200 µM equal to 93.8

---

- Test system: human pancreatic carcinoma (PANC-1)
- experiment: MTS metabolic activity assay, PANC-1 cells
- Assay type: cell-based
- condition.description: Homo sapiens; PANC-1, 10 µM, 72 h; read-out: Cell metabolic activity (MTS), % of untreated control
readout.label: viability at 10 µM (%)
Supply the numeric figure in %, leaving out any unit text.

1. O=C1N=C(NC2CCCC2)SC12CCCCC2; 102
2. CC(C)C1SC(NC2CCCC2)=NC1=O (stereo not drawn); 107
3. CC1(C)SC(NC2CCCC2)=NC1=O; 110
4. CC1SC(NC2CCCC2)=NC1=O (stereo not drawn); 99.7
5. CCCC1SC(NC2CCCC2)=NC1=O (stereo not drawn); 108
6. O=C1N=C(NC2CCCC2)SC1c1ccc(Br)cc1 (stereo not drawn); 116

The compound listed as "O=C1N=C(NC2CCCC2)SC12CCC2" shows viability at 10 µM equal to 95.4

The compound listed as CCC1SC(NC2CCCC2)=NC1=O (stereo not drawn) shows viability at 10 µM equal to 103

The compound listed as O=C1N=C(NC2CCCC2)SC1c1ccccc1 (stereo not drawn) shows viability at 10 µM equal to 110
